Ref: paper PMC6917776

- ASSAY REMARKS: CelltiterGlo viability cell assay
- Format: cell-based
- TEST CONDITIONS: human, SKMM2 multiple myeloma cells, SKMM2, 6 day, 9.5 uM; read-out: viability Replicate 2
RESULT TYPE: viability at 6 day, 9.5 µM (%)

>  <SMILES INPUT>
COc1cc(OC)cc(-c2noc(N3CCN(C)C4(CCN(c5ccnc(C)c5)CC4)C3)n2)c1

>  <RESULT TYPE>
viability at 6 day, 9.5 µM

>  <UNITS LABEL>
%

>  <TEST RESULT>
102

$$$$

* * *

- ASSAY REMARKS: CelltiterGlo viability cell assay
- Assay type: cell-based
- TEST CONDITIONS: human, MDA-MB-436 breast cancer cells, MDA MB436, 3 day, 30 uM; read-out: viability Replicate 2

>  <SMILES INPUT>
COc1cc(OC)cc(-c2noc(N3CCN(C)C4(CCN(c5ccnc(C)c5)CC4)C3)n2)c1

>  <viability at 3 day, 30 µM (%)>
50

$$$$
